Tested on: S. aureus ATCC 6538
Run description: Monospecies bacterial biofilm inhibition, static peg assay (Calgary device, crystal violet; planktonic OD600)
Type: cell-based, Staphylococcus aureus
Settings: Staphylococcus aureus, ATCC6538; S. aureus ATCC 6538, 37°C; read-out: BIC50 (concentration needed to inhibit biofilm formation by 50%)
Observed property: log10(IC50) (log10 of the value in µM)
Please interpret these as log10 of IC50 where IC50 is in µM.

Query (compound): CCCCCCCCn1c(-c2ccc(Br)cc2)cnc1NCC(C)C [Compound 8c] ; field requested: log10(IC50)
1.61

One more compound: CCCCCCCCn1c(-c2ccc(Br)cc2)cnc1NC1CCCC1 [Compound 8g]
0.93

Similarly, CCCCCCCCn1c(-c2ccc(Cl)cc2)cnc1NCC(C)C [Compound 8b] ?
0.76

And then CCCCCCCCn1c(-c2ccc(Cl)c(Cl)c2)cnc1NC1CCCC1 [Compound 8h] , what is it?
0.58

// same read-out, input: CCCCCCCCn1c(-c2ccc(Cl)c(Cl)c2)cnc1NCC(C)C [Compound 8d]
2.06

Also need CCCCCCCCn1c(-c2ccccc2)cnc1NC1CCCC1 [Compound 8e] , thanks.
0.00

Do the same for CCCCCCCCn1c(-c2ccc(Cl)cc2)cnc1NC1CCCC1 [Compound 8f] please
0.83
